Tested on: SK-OV-3 ovarian
Test: NCI tumour cell line growth inhibition, 48 h
Some compounds, each annotated with its measured TGI.
READOUT_LABEL: TGI (µM)

- COMPOUND: "COc1cccc2c1OC1Sc3ccccc3-c3nn(-c4ccccc4)c-2c31 (stereo not given)"
  TARGET_OF_ASSAY: "SK-OV-3 ovarian"
  UOM: "µM"
  MODIFIER: ">"
  TEST_VALUE: 100
- COMPOUND: "CC1(C)OC[C@H](C(=N)OCc2ccccc2)O1"
  TARGET_OF_ASSAY: "SK-OV-3 ovarian"
  UOM: "µM"
  MODIFIER: ">"
  TEST_VALUE: 100
- COMPOUND: "CCN1c2ccccc2NC(=S)c2c1n[nH]c2-c1ccccc1"
  TARGET_OF_ASSAY: "SK-OV-3 ovarian"
  UOM: "µM"
  MODIFIER: ">"
  TEST_VALUE: 100
- COMPOUND: "N#CC(C#N)=NNc1ccc2cn[nH]c2c1"
  TARGET_OF_ASSAY: "SK-OV-3 ovarian"
  UOM: "µM"
  MODIFIER: ">"
  TEST_VALUE: 100
- COMPOUND: "CN1CCN(C(=O)[C@@]2(C)CC[C@]3(C)CC[C@]4(C)C(=CC[C@@H]5[C@@]6(C)CCC(=O)NC(C)(C)[C@@H]6CC[C@]54C)[C@@H]3C2)CC1"
  TARGET_OF_ASSAY: "SK-OV-3 ovarian"
  UOM: "µM"
  MODIFIER: "="
  TEST_VALUE: 3.87
- COMPOUND: "Fc1ccc(-c2sc(-c3ccsc3)cc2Cc2ccsc2)cc1"
  TARGET_OF_ASSAY: "SK-OV-3 ovarian"
  UOM: "µM"
  MODIFIER: ">"
  TEST_VALUE: 10
- COMPOUND: "O=C(c1ccccc1)N1CCN(C(=S)NC2CCCCC2)C1=S"
  TARGET_OF_ASSAY: "SK-OV-3 ovarian"
  UOM: "µM"
  MODIFIER: "="
  TEST_VALUE: 65.6
- COMPOUND: "COC(=O)c1ccc2nc(-c3cc4ccccc4n3C)n(CCCCOc3cc4c(cc3OC)C(=O)N3CCC[C@H]3C=N4)c2c1"
  TARGET_OF_ASSAY: "SK-OV-3 ovarian"
  UOM: "µM"
  MODIFIER: "="
  TEST_VALUE: 4.67
- COMPOUND: "COc1ccccc1NC(=S)N=Nc1c(O)[nH]c2ccccc12"
  TARGET_OF_ASSAY: "SK-OV-3 ovarian"
  UOM: "µM"
  MODIFIER: ">"
  TEST_VALUE: 100
- COMPOUND: "O=C(CCCn1c2c(sc3ccccc32)c(=O)n2nnc(-c3ccccc3)c12)NCCc1cnc[nH]1"
  TARGET_OF_ASSAY: "SK-OV-3 ovarian"
  UOM: "µM"
  MODIFIER: "="
  TEST_VALUE: 6.04

---

System: HOP-62 NSCLC
Assay: NCI tumour cell line growth inhibition, 48 h; in the data active = GI50 below about 0.43 µM; inactive = the rest
Classes used: yes (1) = active, no (0) = inactive

- COMPOUND: "COc1cc(-c2cc3ncccc3c3nc(OCCN(C)C)c4cccnc4c23)cc(OC)c1OC"
  TARGET_OF_ASSAY: "HOP-62 NSCLC"
  LABEL_VALUE: "no (0)"
- COMPOUND: "O=C(/C=C/C12c3ccccc3C(c3ccccc31)C1C(=O)N(c3ccc(Cl)cc3)C(=O)C12)c1ccccn1 (stereo not drawn)"
  TARGET_OF_ASSAY: "HOP-62 NSCLC"
  LABEL_VALUE: "yes (1)"
- COMPOUND: "Cc1ccc([P+](Cc2ccccc2)(c2ccccc2)c2ccccc2)cc1"
  TARGET_OF_ASSAY: "HOP-62 NSCLC"
  LABEL_VALUE: "no (0)"
- COMPOUND: "O=C1/C(=C/c2ccc([N+](=O)[O-])s2)Oc2cc(Cl)ccc21"
  TARGET_OF_ASSAY: "HOP-62 NSCLC"
  LABEL_VALUE: "no (0)"
- COMPOUND: "Oc1c(C(Nc2ccccn2)c2cccc(Oc3ccccc3)c2)ccc2cccnc12 (stereo not drawn)"
  TARGET_OF_ASSAY: "HOP-62 NSCLC"
  LABEL_VALUE: "no (0)"
- COMPOUND: "COc1ccc2c(c1)N(Cc1ccc(Cl)cc1)CCC2N1CCCC1=O (stereo not drawn)"
  TARGET_OF_ASSAY: "HOP-62 NSCLC"
  LABEL_VALUE: "no (0)"
- COMPOUND: "CC1CCC2C(C)C(=O)OC3OC4(C)CCC1C32OO4 (stereo not drawn)"
  TARGET_OF_ASSAY: "HOP-62 NSCLC"
  LABEL_VALUE: "no (0)"
- COMPOUND: "CNC(=O)c1nn(C)c2c1C(C)(C)Cc1cnc(Nc3cccc(N4CCN(C)CC4)c3)nc1-2"
  TARGET_OF_ASSAY: "HOP-62 NSCLC"
  LABEL_VALUE: "no (0)"
- COMPOUND: "COC1=CC(c2ccc[nH]2)=N/C1=C\\c1[nH]c(C)c(C(=O)CCC(=O)Oc2ccc3c(c2)CCC2C3CC[C@]3(C)[C@@H](O)CC[C@@H]23)c1C (stereo partly drawn)"
  TARGET_OF_ASSAY: "HOP-62 NSCLC"
  LABEL_VALUE: "no (0)"
- COMPOUND: "CN1CC=C(c2cc(NC(=O)Nc3ccc(Oc4ccnc(NC(=O)C5CC5)c4)c(F)c3)cc(C(F)(F)F)c2)CC1"
  TARGET_OF_ASSAY: "HOP-62 NSCLC"
  LABEL_VALUE: "yes (1)"
- COMPOUND: "O=C(c1ccccc1)C(Cl)C(Cl)c1ccccc1 (stereo not drawn)"
  TARGET_OF_ASSAY: "HOP-62 NSCLC"
  LABEL_VALUE: "no (0)"
- COMPOUND: "Cc1ccc(-c2nc3nc(-c4ccc(F)cc4)nc(N4CCNCC4)c3o2)cc1"
  TARGET_OF_ASSAY: "HOP-62 NSCLC"
  LABEL_VALUE: "no (0)"
- COMPOUND: "C/C(=N\\NC(=S)N1CCN(c2ccccn2)CC1)c1ccccn1"
  TARGET_OF_ASSAY: "HOP-62 NSCLC"
  LABEL_VALUE: "yes (1)"
